# Tgt: Human carbonic anhydrase II (hCA-II) (Homo sapiens (Human))
# Method summary: Human carbonic anhydrase-II inhibition assay (absorbance, 4-nitrophenyl acetate substrate)
# Format: biochemical
# Experimental: Human Carbonic Anhydrase-II Inhibition Assay Human carbonic anhydrase II (hCA-II) inhibition was measured by an absorbance method using 4-nitrophenyl acetate (4-NPA) as its substrate. 4-NPA can be catalyzed by active hCA II via a zinc-hydroxide mechanism. The nitrophenolate in the products can be ionized to generate a bright yellow anion with high absorbance at 348 to 400 nm, as reported in the literature (Armstrong et al., J. Biol. Chem. 1966, 241, 5137-5149). […]
pIC50: −log10 of the molar value.
Measured pIC50 accompanies every entry in the list below.
Metric name: pIC50

[[record]]
line_notation = "CC(C)(C)C(=O)Nc1cc(Cl)c(Cl)nc1COC(=O)N1CC2=C(C1)CN(C(=O)c1ccc(S(N)(=O)=O)c(F)c1F)C2"
metric_name = "pIC50"
observed_value = 8.38

[[record]]
line_notation = "NS(=O)(=O)c1ccc(C(=O)N2CC3=C(CN(C(=O)c4cc(OCC5CCOCC5)nc(C5CC5)c4)C3)C2)c(F)c1F"
metric_name = "pIC50"
observed_value = 8.64

[[record]]
line_notation = "CN1CCC(COc2cc(C(=O)N3CC4=C(C3)CN(C(=O)c3ccc(S(N)(=O)=O)c(F)c3F)C4)cc(C3CC3)n2)CC1"
metric_name = "pIC50"
observed_value = 9.00

[[record]]
line_notation = "Cc1cn(Cc2cc(C(F)(F)F)ccc2CCC(=O)N2CC3=C(C2)CN(C(=O)c2ccc(S(N)(=O)=O)cc2F)C3)nn1"
metric_name = "pIC50"
observed_value = 7.96

[[record]]
line_notation = "NS(=O)(=O)c1ccc(C(=O)N2CC3=C(CN(C(=O)COc4ccc(OC(F)(F)F)cc4)C3)C2)c(F)c1"
metric_name = "pIC50"
observed_value = 8.05

[[record]]
line_notation = "Cc1nnn(Cc2cc(C#N)ccc2CCC(=O)N2CC3=C(C2)CN(C(=O)c2ccc(S(N)(=O)=O)cc2F)C3)n1"
metric_name = "pIC50"
observed_value = 7.80


* * *

# Tgt: human ATX (Homo sapiens (Human))
# Method summary: Human ATX enzyme inhibition assay (fluorescence quenching, MR121 substrate)
# Assay type: biochemical
# Settings: human His-tagged ATX 30 nM, MR121 substrate 1 μM, 30° C.; read-out: ATX IC50
pIC50: −log10 of the molar value.
Metric name: pIC50

[[record]]
line_notation = "NS(=O)(=O)c1ccc(C(=O)N2CC3=C(CN(C(=O)c4cc(OCC5CCOCC5)nc(C5CC5)c4)C3)C2)c(F)c1"
observed_value = 8.10

[[record]]
line_notation = "CC(C)(C)C(=O)Nc1cccnc1COC(=O)N1CC2=C(C1)CN(C(=O)c1ccc(S(N)(=O)=O)cc1F)C2"
observed_value = 8.00

[[record]]
line_notation = "NS(=O)(=O)c1ccc(C(=O)N2CC3=C(CN(C(=O)/C=C/c4ccc(OC(F)(F)F)cc4)C3)C2)c(F)c1"
observed_value = 8.30

[[record]]
line_notation = "Cc1nnn(Cc2cc(C(F)(F)F)ccc2CCC(=O)N2CC3=C(C2)CN(C(=O)c2ccc(S(N)(=O)=O)cc2F)C3)n1"
observed_value = 8.10

[[record]]
line_notation = "CC(C)(C)C(=O)Nc1cc(C(F)(F)F)cnc1COC(=O)N1CC2=C(C1)CN(C(=O)c1ccc(S(N)(=O)=O)cc1)C2"
observed_value = 8.22

[[record]]
line_notation = "Cc1ccc(NC(=O)C(C)(C)C)c(COC(=O)N2CC3=C(C2)CN(C(=O)c2ccc(S(N)(=O)=O)cc2F)C3)n1"
observed_value = 7.96

